Each item that follows carries a reported pIC50.
# TARGET OR SYSTEM: RNA-directed RNA polymerase (Hepacivirus hominis)
# Sequence (Q8JXU8 whole entry): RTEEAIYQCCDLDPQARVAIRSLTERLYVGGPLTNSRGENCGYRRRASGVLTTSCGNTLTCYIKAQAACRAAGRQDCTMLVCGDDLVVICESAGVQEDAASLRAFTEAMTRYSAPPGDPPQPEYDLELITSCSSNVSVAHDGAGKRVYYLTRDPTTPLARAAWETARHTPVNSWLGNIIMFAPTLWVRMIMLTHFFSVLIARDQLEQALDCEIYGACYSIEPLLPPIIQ
# PROCEDURE DETAILS: Inhibitory activity against HCV delta 21 NS5b RNA polymerase
pIC50: −log10 of the molar value.

- LINE NOTATION: "O=C(NN1C(=O)C(=Cc2ccc(Cl)cc2)SC1=S)c1ccccc1"
  INEQUALITY OPERATOR: "<"
  pIC50: 4.52
- LINE NOTATION: "O=S(=O)(Nn1c(O)c(Cc2ccc(Cl)c(Cl)c2)sc1=S)c1ccccc1"
  INEQUALITY OPERATOR: "="
  pIC50: 4.96
- LINE NOTATION: "O=C1C(=Cc2ccc(-c3cc(C(F)(F)F)ccc3Cl)o2)SC(=S)N1NS(=O)(=O)c1ccccc1"
  INEQUALITY OPERATOR: "="
  pIC50: 7.00
- LINE NOTATION: "O=C1N=C(S)SC1=Cc1ccc(Cl)cc1"
  INEQUALITY OPERATOR: "<"
  pIC50: 4.52
- LINE NOTATION: "C=C(c1ccc(Cl)c(Cl)c1)c1sc(=S)n(NS(=O)(=O)c2ccccc2)c1O"
  INEQUALITY OPERATOR: "="
  pIC50: 6.22

Entry source: BindingDB's records for doi:10.1021/jm050859x
